All figures here come from ChEMBL document CHEMBL1811864.

Biological target: Transcriptional activator protein LasR (Pseudomonas aeruginosa (strain ATCC 15692 / PAO1 / 1C / PRS 101 / LMG12228)) (UniProt P25084)
Sequence (P25084 whole entry): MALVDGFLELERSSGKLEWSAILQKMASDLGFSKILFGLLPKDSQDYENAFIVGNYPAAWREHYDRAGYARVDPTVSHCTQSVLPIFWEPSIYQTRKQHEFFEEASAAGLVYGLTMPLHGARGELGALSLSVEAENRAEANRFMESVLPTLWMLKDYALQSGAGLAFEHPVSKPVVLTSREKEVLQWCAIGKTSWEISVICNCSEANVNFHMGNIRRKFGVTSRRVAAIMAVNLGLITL
Assay: Agonist activity at Pseudomonas aeruginosa PAO1 MW1 (pUM15) LasR at 10 uM after 8 hrs by YFP fluorescence reporter gene assay relative to OdDHL

{"columns": ["Molecule", "Activity (%)"],
 "data": [
  ["CCCCCC(=O)N[C@H]1CCSC1=O", 20],
  ["O=C(Cc1ccc(-c2ccccc2)cc1)NC1CCSC1=O (racemic)", 1],
  ["O=C(Cc1ccc(-c2ccccc2)cc1)N[C@H]1CCSC1=O", 3],
  ["O=C(Cc1cccc([N+](=O)[O-])c1)NC1CCSC1=O (racemic)", 3],
  ["CCCCCC(=O)CC(=O)N[C@H]1CCSC1=O", 3],
  ["O=C(Cc1ccc(Br)cc1)N[C@H]1CCSC1=O", 8],
  ["O=C(CCc1cc2ccccc2[nH]1)N[C@H]1CCSC1=O", 10],
  ["O=C(Cc1ccc(Br)cc1)NC1CCSC1=O (racemic)", 5],
  ["CCCCCCCCCCCC(=O)N[C@H]1CCSC1=O", 42],
  ["CCCC(=O)CC(=O)N[C@H]1CCSC1=O", 76],
  ["COc1ccc(CC(=O)NC2CCSC2=O)cc1 (racemic)", 4],
  ["CCCC(=O)N[C@H]1CCSC1=O", 22],
  ["CCCCCCC(=O)N[C@H]1CCSC1=O", 0],
  ["O=C(CCc1cc2ccccc2[nH]1)NC1CCSC1=O (racemic)", 3],
  ["O=C(Cc1ccccc1)NC1CCSC1=O (racemic)", 17],
  ["CCCCCCCC(=O)N[C@H]1CCSC1=O", 0],
  ["CCCCCCCCCC(=O)CC(=O)N[C@H]1CCSC1=O", 88],
  ["COc1ccc(CC(=O)N[C@H]2CCSC2=O)cc1", 7],
  ["O=C(Cc1cccc([N+](=O)[O-])c1)N[C@H]1CCSC1=O", 5]
]}
